Kindly state IC50 for each of the entries shown.
# TARGET_DESC: UniProt P00533
# Sequence (P00533 25-1210 N540K): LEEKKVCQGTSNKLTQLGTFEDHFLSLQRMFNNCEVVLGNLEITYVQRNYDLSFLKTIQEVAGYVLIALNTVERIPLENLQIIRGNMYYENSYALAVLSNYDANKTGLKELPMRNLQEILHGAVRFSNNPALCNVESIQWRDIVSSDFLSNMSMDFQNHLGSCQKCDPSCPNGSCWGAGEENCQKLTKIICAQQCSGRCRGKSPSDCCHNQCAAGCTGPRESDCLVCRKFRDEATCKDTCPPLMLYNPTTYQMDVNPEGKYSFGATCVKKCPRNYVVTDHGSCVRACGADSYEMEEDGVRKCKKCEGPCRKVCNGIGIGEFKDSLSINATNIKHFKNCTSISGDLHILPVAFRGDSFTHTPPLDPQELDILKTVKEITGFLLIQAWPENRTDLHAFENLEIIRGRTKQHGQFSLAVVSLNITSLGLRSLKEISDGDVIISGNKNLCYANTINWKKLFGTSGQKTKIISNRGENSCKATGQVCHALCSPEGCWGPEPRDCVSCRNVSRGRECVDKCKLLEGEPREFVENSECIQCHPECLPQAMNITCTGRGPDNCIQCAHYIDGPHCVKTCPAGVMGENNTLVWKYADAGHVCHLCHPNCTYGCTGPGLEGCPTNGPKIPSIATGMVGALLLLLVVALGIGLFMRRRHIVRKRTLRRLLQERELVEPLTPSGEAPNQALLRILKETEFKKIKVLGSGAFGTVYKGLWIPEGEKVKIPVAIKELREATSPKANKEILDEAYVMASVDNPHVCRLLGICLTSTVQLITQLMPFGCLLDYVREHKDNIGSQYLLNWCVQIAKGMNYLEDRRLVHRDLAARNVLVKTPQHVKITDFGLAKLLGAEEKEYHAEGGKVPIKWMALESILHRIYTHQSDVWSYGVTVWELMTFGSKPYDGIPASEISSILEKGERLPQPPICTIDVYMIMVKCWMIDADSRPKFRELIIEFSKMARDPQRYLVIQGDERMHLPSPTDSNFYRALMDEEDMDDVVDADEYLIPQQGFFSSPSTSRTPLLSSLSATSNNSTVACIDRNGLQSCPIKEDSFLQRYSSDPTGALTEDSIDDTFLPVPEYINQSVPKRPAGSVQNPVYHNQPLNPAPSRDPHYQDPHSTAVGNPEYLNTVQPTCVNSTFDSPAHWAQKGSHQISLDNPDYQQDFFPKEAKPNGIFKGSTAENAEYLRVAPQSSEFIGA
# ASSAY_PROCEDURE: Activity for inhibiting EGFR (Table A), EGFR WT
# Type: cell-based
# EXPERIMENTAL_PARAMETERS: read-out: EGFR WT, potency code (IC50)

// IC50 lookup, key: C=CC(=O)Nc1cc2c(Nc3cc(C)c(OCc4ccccn4)cc3F)ncnc2cc1OCCN1CCOCC1
300 to 500 nM

Thanks! And C=CC(=O)Nc1cc2c(Nc3ccc(OCc4ccccn4)c(Cl)c3)ncnc2cc1N(C)CCN1CCOCC1 ?
> 1000 nM

Next record, please: CC#CC(=O)Nc1cc2c(Nc3cc(Cl)c(OCc4cccc(F)c4)cc3F)ncnc2cc1OCCCN1CCOCC1
200 to 300 nM

Please do the same for C=CC(=O)Nc1cc2c(Nc3ccc(OCc4ccccn4)c(Cl)c3)ncnc2cc1OCCN1CC2(CCO2)C1 as well.
500 to 1000 nM

What do you get for C=CC(=O)Nc1cc2c(Nc3ccc(OCc4cccc(OC(F)(F)F)n4)c(Cl)c3)ncnc2cc1OCCN1CCOCC1 ?
> 1000 nM

Next entry: C=CC(=O)Nc1cc2c(Nc3ccc(OCc4ccccn4)c(Cl)c3)ncnc2cc1C#CC(C)(C)N(C)C
500 to 1000 nM

What about C=CC(=O)Nc1cc2c(Nc3ccc(OCc4ccccn4)c(Cl)c3)ncnc2cc1C#C[C@H]1CCNC1 ?
500 to 1000 nM

Note, next up: C=CC(=O)Nc1cc2c(Nc3ccc(OCc4ccccn4)c(Cl)c3)ncnc2cc1O[C@H]1CCN(C)C1
300 to 500 nM

Now try C=CC(=O)Nc1cc2c(Nc3ccc(OCc4cccc(C)n4)c(Cl)c3)ncnc2cc1OCCN1CCN(C)CC1 .
200 to 300 nM

Follow-up entry: C=CC(=O)Nc1cc2c(Nc3ccc(OCc4ccccn4)c(Cl)c3)ncnc2cc1OCCN1CCC(OC)C1 (stereo not drawn)
300 to 500 nM

Another compound: C=CC(=O)Nc1cc2c(Nc3ccc(OCc4ccccn4)c(Cl)c3)ncnc2cc1OCCN1CC2COCC2C1 (stereo not drawn)
500 to 1000 nM

Repeat with C=CC(=O)Nc1cc2c(Nc3ccc(OCc4ccccn4)c(Cl)c3)ncnc2cc1O[C@@H]1CCN(C)C1
200 to 300 nM

Now consider C=CC(=O)Nc1cc2c(Nc3ccc(OCc4cccc(C)n4)c(Cl)c3)ncnc2cc1OCCCN1CCOCC1 .
500 to 1000 nM

Would you kindly repeat that for CC#CC(=O)Nc1cc2c(Nc3ccc(OCc4ccccn4)c(Cl)c3)ncnc2cc1C#CC(C)(C)N1CCN(C)CC1 ?
50 to 100 nM

Would you kindly repeat that for C=CC(=O)Nc1cc2c(Nc3cc(Cl)c(OCc4cccc(F)c4)cc3F)ncnc2cc1OCCCN1CC(OC)C1 ?
200 to 300 nM

The measurements presented in this section are drawn from patent US11034672B1.
